// data source = patent US20160039895A1

- testSystem: T1, human VEGFR2 on cells (PAE/KDR cells, HUVEC) (human, UniProt P35968 20-1356)
- T1 construct: whole, on cells
- T1 sequence (P35968 20-1356): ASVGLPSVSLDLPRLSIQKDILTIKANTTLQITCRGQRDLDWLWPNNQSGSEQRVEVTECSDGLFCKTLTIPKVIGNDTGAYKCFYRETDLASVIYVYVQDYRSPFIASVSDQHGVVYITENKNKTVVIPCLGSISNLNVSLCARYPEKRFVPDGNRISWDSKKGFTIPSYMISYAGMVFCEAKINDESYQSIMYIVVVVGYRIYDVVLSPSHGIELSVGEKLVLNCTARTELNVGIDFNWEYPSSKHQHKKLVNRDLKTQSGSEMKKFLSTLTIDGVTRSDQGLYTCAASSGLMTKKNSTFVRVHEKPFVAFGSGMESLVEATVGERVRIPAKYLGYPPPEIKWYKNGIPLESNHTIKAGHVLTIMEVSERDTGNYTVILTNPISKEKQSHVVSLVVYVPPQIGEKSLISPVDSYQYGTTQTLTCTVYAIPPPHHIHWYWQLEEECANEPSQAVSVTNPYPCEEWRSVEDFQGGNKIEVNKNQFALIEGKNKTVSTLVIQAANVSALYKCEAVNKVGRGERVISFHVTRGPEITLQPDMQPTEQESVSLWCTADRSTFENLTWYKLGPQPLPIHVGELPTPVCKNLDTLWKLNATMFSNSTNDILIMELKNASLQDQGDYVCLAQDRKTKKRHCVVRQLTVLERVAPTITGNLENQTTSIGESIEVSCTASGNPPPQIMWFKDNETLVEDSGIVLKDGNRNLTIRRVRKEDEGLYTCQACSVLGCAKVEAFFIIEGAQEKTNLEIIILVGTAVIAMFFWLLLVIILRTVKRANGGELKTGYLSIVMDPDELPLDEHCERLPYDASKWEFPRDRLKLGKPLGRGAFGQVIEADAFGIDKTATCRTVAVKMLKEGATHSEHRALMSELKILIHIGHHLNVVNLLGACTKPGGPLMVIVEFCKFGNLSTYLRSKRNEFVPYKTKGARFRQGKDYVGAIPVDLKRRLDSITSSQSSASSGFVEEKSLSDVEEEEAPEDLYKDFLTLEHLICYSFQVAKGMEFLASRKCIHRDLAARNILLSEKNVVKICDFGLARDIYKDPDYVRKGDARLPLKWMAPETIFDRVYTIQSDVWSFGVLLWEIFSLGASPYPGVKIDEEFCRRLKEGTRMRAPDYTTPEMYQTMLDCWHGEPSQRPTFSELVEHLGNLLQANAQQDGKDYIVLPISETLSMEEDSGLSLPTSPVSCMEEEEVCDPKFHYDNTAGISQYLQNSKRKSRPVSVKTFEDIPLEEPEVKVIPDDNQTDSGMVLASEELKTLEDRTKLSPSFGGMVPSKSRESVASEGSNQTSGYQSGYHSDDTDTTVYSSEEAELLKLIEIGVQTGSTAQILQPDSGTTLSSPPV
- experimentalDetails: flow cytometry titration on HUVEC, anti-FLAG detection
measuredEndpoint: Kd (nM)
Provide the reading as a plain figure in nM.

binder | unitSpec | Kd
scVEGF-mA (designed binder, Soluble protein from P. pastoris with C-terminal hexahistidine tag, with or without N-terminal FLAG tag (tags not included in the parts); also called scVEGFmut-A) EVAKAMDVYQKSYCHPIETLVDILQEYPDEIGYIFKPSCVPLMRCGGCCNDAGLECVPTEESNITMQIMRIKPYQGQHIGEMSFLQHNKCECRPKKDGSTSGSGKSSEGKGEVVKFMDVYQRSYCHPIETLVDIFQEYPDKIEYAFKPSCVPLMRCGGCCNNEGLECVPTEESNITMQITRAKPHQGQHIGEMSFLQHNKCECRPKKD | nM | 36
scVEGF-mJ (designed binder, Soluble protein with C-terminal hexahistidine tag, with or without N-terminal FLAG tag (tags not included in the parts); also called scVEGFmut-J) EIVKARDVYQRSYCHPIETLVDILQEYPDEIEYIFKPSCVPLMRCGGCCNDAGLECVPTEESNITMQIMRIKPYQGHHIGEMSFLQHNKCECRPKKDGSTSGSGKSSEGKGEVVKFMDVYQRSYCHPIETLVDIFQEYPDEIEYAFKPSCVPLMRCGGCCNNEGLECVPTEESNITMQIMRAKPHQGQHTGEMSFLQHNKCECRPKKD | nM | 39
scVEGFmut (designed binder, scVEGF with chain 1 F17A, E64A and chain 2 I46A, I83A (VEGF121 numbering); Soluble protein from P. pastoris with C-terminal hexahistidine tag, with or without N-terminal FLAG tag) YVEVVKAMDVYQRSYCHPIETLVDIFQEYPDEIEYIFKPSCVPLMRCGGCCNDAGLECVPTEESNITMQIMRIKPHQGQHIGEMSFLQHNKCECRPKKDGSTSGSGKSSEGKGEVVKFMDVYQRSYCHPIETLVDIFQEYPDEIEYAFKPSCVPLMRCGGCCNDEGLECVPTEESNITMQIMRAKPHQGQHIGEMSFLQHNKCECRPKKDTR | nM | 101

# context switch: different binder, same Kd
Per the records, this binder ( scVEGFwt (ligand, also called wild-type scVEGF; single-chain VEGF) YVEVVKFMDVYQRSYCHPIETLVDIFQEYPDEIEYIFKPSCVPLMRCGGCCNDEGLECVPTEESNITMQIMRIKPHQGQHIGEMSFLQHNKCECRPKKDGSTSGSGKSSEGKGEVVKFMDVYQRSYCHPIETLVDIFQEYPDEIEYIFKPSCVPLMRCGGCCNDEGLECVPTEESNITMQIMRIKPHQGQHIGEMSFLQHNKCECRPKKDTR ) has Kd equal to 28
